Measured values drawn from patent US10428082B2 for this set.

Test system: UO-31
Test: NCI 60 growth inhibition
Assay type: cell-based, human
Settings: Homo sapiens; UO-31, Renal Cancer, Table 2
Protocol: The above triazole derivatives of melampomagnolide B were evaluated for growth inhibitory properties against an NCI panel of 60 human cancer cell lines derived from nine human cancer cell types, grouped into disease sub-panels that represent leukemia, lung, colon, central nervous system (CNS), melanoma, renal, ovary, breast, and prostate cancer cells. Growth inhibitory (GI50) effects were measured as a function of the variation of optical density as a percentage of control.

MOLECULAR STRING: C=C1C(=O)O[C@H]2[C@H]1CC/C(Cn1cc(-c3ccc(OC)cc3)nn1)=C\CC[C@@]1(C)O[C@@H]21
UNIT ABBREV: nM
GI50: 1270

MOLECULAR STRING: C=C1C(=O)O[C@H]2[C@H]1CC/C(Cn1cc(CCC)nn1)=C\CC[C@@]1(C)O[C@@H]21
UNIT ABBREV: nM
GI50: 11100

MOLECULAR STRING: C=C1C(=O)O[C@H]2[C@H]1CC/C(Cn1cc(-c3cc(C(F)(F)F)cc(C(F)(F)F)c3)nn1)=C\CC[C@@]1(C)O[C@@H]21
UNIT ABBREV: nM
GI50: 380

MOLECULAR STRING: C=C1C(=O)O[C@H]2[C@H]1CC/C(Cn1cc(-c3ccc(F)cc3)nn1)=C\CC[C@@]1(C)O[C@@H]21
UNIT ABBREV: nM
GI50: 1220

MOLECULAR STRING: C=C1C(=O)O[C@H]2[C@H]1CC/C(Cn1cc(-c3ccccc3)nn1)=C\CC[C@@]1(C)O[C@@H]21
UNIT ABBREV: nM
GI50: 870

MOLECULAR STRING: C=C1C(=O)O[C@H]2[C@H]1CC/C(Cn1cc(-c3cccc(Cl)c3)nn1)=C\CC[C@@]1(C)O[C@@H]21
UNIT ABBREV: nM
GI50: 1080
